Data provenance: patent US20200017592A1

- Assayed Target: T1, human IL-36R extracellular domain expressed with a C-terminal mouse IgG2a Fc tag (hIL-36R-mFc) (human; mouse, UniProt Q9HB29 20-337)
- T1 construct: not shown: mouse IgG2a Fc, E98-K330
- T1 sequence (looked up): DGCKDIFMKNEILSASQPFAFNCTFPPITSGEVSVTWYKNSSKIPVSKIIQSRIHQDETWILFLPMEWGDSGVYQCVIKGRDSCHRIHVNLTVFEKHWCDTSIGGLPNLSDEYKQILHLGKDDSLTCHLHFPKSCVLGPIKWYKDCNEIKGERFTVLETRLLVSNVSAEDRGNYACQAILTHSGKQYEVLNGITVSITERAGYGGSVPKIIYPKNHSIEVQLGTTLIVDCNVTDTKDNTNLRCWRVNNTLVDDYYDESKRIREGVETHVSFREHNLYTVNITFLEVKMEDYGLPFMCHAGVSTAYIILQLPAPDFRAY
- Assay Summary: SPR Biacore 4000, mAb captured on anti-hFc, 25C
Assay Metric: koff (s⁻¹)
Number only, in s⁻¹; omit the unit.

H4H14706P2 (antibody, human IgG4 S228P, kappa, V domains shown, Fully human anti-IL-36R antibody) VH: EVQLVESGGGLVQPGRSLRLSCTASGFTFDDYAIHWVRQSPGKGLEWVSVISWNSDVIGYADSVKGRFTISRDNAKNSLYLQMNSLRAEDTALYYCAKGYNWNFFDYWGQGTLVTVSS VL: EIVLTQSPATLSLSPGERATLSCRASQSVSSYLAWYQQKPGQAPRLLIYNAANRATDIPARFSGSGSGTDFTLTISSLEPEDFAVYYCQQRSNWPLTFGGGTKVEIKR
0.000132
H4H14757P (antibody, human IgG4 S228P, kappa, V domains shown, Fully human anti-IL-36R antibody) VH: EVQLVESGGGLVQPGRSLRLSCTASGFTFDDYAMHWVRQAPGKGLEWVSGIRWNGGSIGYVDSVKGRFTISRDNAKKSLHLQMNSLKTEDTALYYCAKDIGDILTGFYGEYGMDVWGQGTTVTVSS VL: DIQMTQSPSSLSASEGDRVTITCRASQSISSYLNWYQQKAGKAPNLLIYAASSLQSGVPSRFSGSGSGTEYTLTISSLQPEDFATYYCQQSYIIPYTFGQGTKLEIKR
9.97e-05

Consider the record given below.
Query: koff; subject: H4H14758P (antibody, human IgG4 S228P, kappa, V domains shown, Fully human anti-IL-36R antibody) VH: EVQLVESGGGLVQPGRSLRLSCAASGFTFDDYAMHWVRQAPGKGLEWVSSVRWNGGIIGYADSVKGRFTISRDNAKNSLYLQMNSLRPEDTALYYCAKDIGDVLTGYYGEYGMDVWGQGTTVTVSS VL: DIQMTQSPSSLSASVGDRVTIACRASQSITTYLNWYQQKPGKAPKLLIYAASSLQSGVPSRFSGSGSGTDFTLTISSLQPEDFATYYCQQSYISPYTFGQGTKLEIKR
0.000163
